Values were extracted from patent US9474758B2.

So I've got a bunch of compounds here, and I need their inhibition at 1 µM values.
target: Rat TRPA1 expressing CHO cells (Rattus norvegicus); construct: expressed in transfected cells; host or cells: CHO cells (Zeocin selection); test: 45Calcium uptake assay, inhibition of AITC induced calcium uptake (rat); assay type: cell-based; conditions: rat TRPA1 CHO cells, AITC 10 μM, compound 1.0 μM; read-out: Percentage inhibition at 1.0 μM
Sequence (Q6RI86 whole entry): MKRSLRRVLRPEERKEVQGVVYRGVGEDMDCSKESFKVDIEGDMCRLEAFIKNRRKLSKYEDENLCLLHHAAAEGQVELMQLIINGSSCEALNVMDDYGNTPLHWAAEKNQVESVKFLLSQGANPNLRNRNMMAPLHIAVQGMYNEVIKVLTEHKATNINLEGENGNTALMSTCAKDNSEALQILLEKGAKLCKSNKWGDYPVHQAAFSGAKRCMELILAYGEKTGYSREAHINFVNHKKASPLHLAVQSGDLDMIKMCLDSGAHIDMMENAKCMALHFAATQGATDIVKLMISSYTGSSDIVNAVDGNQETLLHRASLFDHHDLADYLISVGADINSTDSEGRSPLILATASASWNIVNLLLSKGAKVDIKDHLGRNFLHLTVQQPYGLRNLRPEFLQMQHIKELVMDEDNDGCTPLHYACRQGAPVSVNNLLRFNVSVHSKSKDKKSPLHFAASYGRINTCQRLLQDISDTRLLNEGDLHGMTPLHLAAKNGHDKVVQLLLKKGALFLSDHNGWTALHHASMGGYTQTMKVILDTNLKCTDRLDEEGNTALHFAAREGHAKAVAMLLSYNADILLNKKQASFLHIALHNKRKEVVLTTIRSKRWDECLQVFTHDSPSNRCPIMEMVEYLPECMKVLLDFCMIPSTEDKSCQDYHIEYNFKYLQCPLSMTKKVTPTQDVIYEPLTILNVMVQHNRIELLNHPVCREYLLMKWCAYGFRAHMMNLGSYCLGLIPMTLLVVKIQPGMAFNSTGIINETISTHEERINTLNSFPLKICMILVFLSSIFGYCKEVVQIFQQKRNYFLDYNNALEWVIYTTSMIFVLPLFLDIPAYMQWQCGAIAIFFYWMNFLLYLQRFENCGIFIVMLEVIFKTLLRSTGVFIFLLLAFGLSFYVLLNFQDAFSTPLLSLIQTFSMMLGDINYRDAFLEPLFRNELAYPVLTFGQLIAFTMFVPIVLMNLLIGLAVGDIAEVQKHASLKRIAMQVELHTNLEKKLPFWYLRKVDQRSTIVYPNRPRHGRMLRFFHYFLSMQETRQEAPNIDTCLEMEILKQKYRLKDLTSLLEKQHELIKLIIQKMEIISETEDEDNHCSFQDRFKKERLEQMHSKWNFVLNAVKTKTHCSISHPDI
Quick note: number first, unit second.

Using the record for Cc1sc2c(c1CC(=O)Nc1nc(-c3ccc(F)cc3F)cs1)c(=O)n(C)c(=O)n2C , report its inhibition at 1 µM.
89.8%

Using the record for Cc1sc2c(c1CC(=O)Nc1nc(-c3ccc(Cl)cc3)cs1)c(=O)n(C)c(=O)n2C , report its inhibition at 1 µM.
89.4%

Using the record for Cc1sc2c(c1CC(=O)Nc1nc(-c3ccc(OC(F)(F)F)c(F)c3)cs1)c(=O)n(C)c(=O)n2C , report its inhibition at 1 µM.
98.2%

Using the record for CCCc1sc2c(c1CC(=O)Nc1nc(-c3ccc(C(F)(F)F)c(F)c3)cs1)c(=O)n(C)c(=O)n2C , report its inhibition at 1 µM.
90.1%

Using the record for Cn1c(=O)c2c(CC(=O)Nc3nc(-c4cc(F)c(C(F)(F)F)c(F)c4)cs3)scc2n(C)c1=O , report its inhibition at 1 µM.
71.1%

Using the record for Cn1c(=O)c2c(CC(=O)Nc3nc(-c4ccc(OC(F)(F)F)c(F)c4)cs3)csc2n(C)c1=O , report its inhibition at 1 µM.
98.8%

Using the record for Cn1c(=O)c2c(CC(=O)Nc3nc(-c4ccc(Cl)cc4)cs3)scc2n(C)c1=O , report its inhibition at 1 µM.
66.2%

Using the record for Cn1c(=O)c2c(CC(=O)Nc3nc(-c4cc(F)cc(C(F)(F)F)c4)cs3)csc2n(C)c1=O , report its inhibition at 1 µM.
95.5%

---

So I've got a bunch of compounds here, and I need their inhibition at 1 µM values.
biological target: Human TRPA1 expressing CHO cells (Homo sapiens); construct: expressed in transfected cells; host or cells: CHO cells (G-418 selection); assay: 45Calcium uptake assay, inhibition of AITC induced calcium uptake (human); type: cell-based; conditions: human TRPA1 CHO cells, AITC 30 μM, compound 1.0 μM; read-out: Percentage inhibition at 1.0 μM
Sequence (O75762 whole entry): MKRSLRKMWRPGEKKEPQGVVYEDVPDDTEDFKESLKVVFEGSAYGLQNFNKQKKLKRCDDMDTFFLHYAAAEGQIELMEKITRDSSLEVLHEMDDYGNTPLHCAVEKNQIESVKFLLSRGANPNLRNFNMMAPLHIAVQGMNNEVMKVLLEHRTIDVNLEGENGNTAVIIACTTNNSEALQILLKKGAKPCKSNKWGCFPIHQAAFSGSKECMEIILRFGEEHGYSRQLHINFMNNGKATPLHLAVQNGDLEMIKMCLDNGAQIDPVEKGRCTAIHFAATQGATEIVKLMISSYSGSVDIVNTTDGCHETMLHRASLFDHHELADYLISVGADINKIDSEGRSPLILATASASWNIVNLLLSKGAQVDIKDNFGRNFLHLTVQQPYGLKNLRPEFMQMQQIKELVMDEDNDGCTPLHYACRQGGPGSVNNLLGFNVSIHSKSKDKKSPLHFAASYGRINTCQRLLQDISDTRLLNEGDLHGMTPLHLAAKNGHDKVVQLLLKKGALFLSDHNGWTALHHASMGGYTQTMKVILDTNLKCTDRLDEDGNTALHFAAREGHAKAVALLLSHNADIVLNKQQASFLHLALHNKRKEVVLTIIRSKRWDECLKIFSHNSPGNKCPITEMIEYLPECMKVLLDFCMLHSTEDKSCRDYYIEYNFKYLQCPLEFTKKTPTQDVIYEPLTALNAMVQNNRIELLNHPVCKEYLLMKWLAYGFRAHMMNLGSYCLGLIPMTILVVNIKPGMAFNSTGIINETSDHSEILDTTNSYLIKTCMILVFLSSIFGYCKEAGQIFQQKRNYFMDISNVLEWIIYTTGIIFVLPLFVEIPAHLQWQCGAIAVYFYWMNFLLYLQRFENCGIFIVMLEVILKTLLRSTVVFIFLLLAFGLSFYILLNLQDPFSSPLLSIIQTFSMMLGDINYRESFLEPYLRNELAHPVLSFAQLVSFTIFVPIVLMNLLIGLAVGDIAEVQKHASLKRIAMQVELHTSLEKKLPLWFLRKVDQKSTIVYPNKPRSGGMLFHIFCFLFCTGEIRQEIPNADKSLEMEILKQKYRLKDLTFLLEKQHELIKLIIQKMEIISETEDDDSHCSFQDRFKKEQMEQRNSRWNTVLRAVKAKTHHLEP
Give the value in % but do not write % after it.

Fill in the recorded inhibition at 1 µM for this compound, with Human TRPA1 expressing CHO cells (Homo sapiens) as test system: Cn1c(=O)c2c(CC(=O)Nc3nc(-c4ccc(F)c(C(F)(F)F)c4)cs3)csc2n(C)c1=O [Example 6]
100

Fill in the recorded inhibition at 1 µM for this compound, with Human TRPA1 expressing CHO cells (Homo sapiens) as test system: Cn1c(=O)c2c(CC(=O)Nc3nc(-c4ccc(F)c(OC(F)(F)F)c4)cs3)scc2n(C)c1=O [Example 55]
99.6

Fill in the recorded inhibition at 1 µM for this compound, with Human TRPA1 expressing CHO cells (Homo sapiens) as test system: Cc1sc2c(c1CC(=O)Nc1nc(-c3ccc(C(F)(F)F)c(F)c3)cs1)c(=O)n(C)c(=O)n2C [Example 24]
98.5

Fill in the recorded inhibition at 1 µM for this compound, with Human TRPA1 expressing CHO cells (Homo sapiens) as test system: Cc1sc2c(c1CC(=O)Nc1nc(-c3ccc(F)cc3F)cs1)c(=O)n(C)c(=O)n2C [Example 22]
89.8

Fill in the recorded inhibition at 1 µM for this compound, with Human TRPA1 expressing CHO cells (Homo sapiens) as test system: Cn1c(=O)c2c(CC(=O)Nc3nc(-c4cc(F)c(C(F)(F)F)c(F)c4)cs3)csc2n(C)c1=O [Example 16]
99.1

Fill in the recorded inhibition at 1 µM for this compound, with Human TRPA1 expressing CHO cells (Homo sapiens) as test system: Cc1sc2c(c1CC(=O)Nc1nc(-c3ccc(C(C)(C)C)cc3)cs1)c(=O)n(C)c(=O)n2C [Example 17]
97.5

Fill in the recorded inhibition at 1 µM for this compound, with Human TRPA1 expressing CHO cells (Homo sapiens) as test system: Cn1c(=O)c2c(CC(=O)Nc3nc(-c4ccc(C(F)(F)F)cc4F)cs3)scc2n(C)c1=O [Example 51]
96.9

Fill in the recorded inhibition at 1 µM for this compound, with Human TRPA1 expressing CHO cells (Homo sapiens) as test system: Cn1c(=O)c2c(CC(=O)Nc3nc(-c4ccc(C(F)(F)F)cc4)cs3)scc2n(C)c1=O [Example 47]
97.9

Fill in the recorded inhibition at 1 µM for this compound, with Human TRPA1 expressing CHO cells (Homo sapiens) as test system: Cn1c(=O)c2c(CC(=O)Nc3nc(-c4ccc(F)c(OC(F)(F)F)c4)cs3)csc2n(C)c1=O [Example 10]
98.2

Fill in the recorded inhibition at 1 µM for this compound, with Human TRPA1 expressing CHO cells (Homo sapiens) as test system: Cc1sc2c(c1CC(=O)Nc1nc(-c3cccc(OC(F)(F)F)c3)cs1)c(=O)n(C)c(=O)n2C [Example 18]
98.5

Fill in the recorded inhibition at 1 µM for this compound, with Human TRPA1 expressing CHO cells (Homo sapiens) as test system: CCc1sc2c(c1CC(=O)Nc1nc(-c3cc(F)c(OCC(F)(F)F)c(F)c3)cs1)c(=O)n(C)c(=O)n2C [Example 34]
97.4

Fill in the recorded inhibition at 1 µM for this compound, with Human TRPA1 expressing CHO cells (Homo sapiens) as test system: Cn1c(=O)c2c(CC(=O)Nc3nc(-c4cc(F)c(OC(F)F)c(F)c4)cs3)scc2n(C)c1=O [Example 59]
89.3

Fill in the recorded inhibition at 1 µM for this compound, with Human TRPA1 expressing CHO cells (Homo sapiens) as test system: Cc1sc2c(c1CC(=O)Nc1nc(-c3ccc(OC(F)(F)F)c(F)c3)cs1)c(=O)n(C)c(=O)n2C [Example 26]
100

Fill in the recorded inhibition at 1 µM for this compound, with Human TRPA1 expressing CHO cells (Homo sapiens) as test system: CCCc1sc2c(c1CC(=O)Nc1nc(-c3cc(F)c(OC(F)F)c(F)c3)cs1)c(=O)n(C)c(=O)n2C [Example 36]
98.9

Fill in the recorded inhibition at 1 µM for this compound, with Human TRPA1 expressing CHO cells (Homo sapiens) as test system: Cc1sc2c(c1CC(=O)Nc1nc(-c3cccc(OC(F)(F)F)c3)c[nH]1)c(=O)n(C)c(=O)n2C [Example 28]
10

Fill in the recorded inhibition at 1 µM for this compound, with Human TRPA1 expressing CHO cells (Homo sapiens) as test system: Cn1c(=O)c2c(CC(=O)Nc3nc(-c4ccc(C(F)(F)F)c(F)c4F)cs3)scc2n(C)c1=O [Example 56]
94.4

Fill in the recorded inhibition at 1 µM for this compound, with Human TRPA1 expressing CHO cells (Homo sapiens) as test system: Cn1c(=O)c2c(CC(=O)Nc3nc(-c4ccc(F)c(C(F)(F)F)c4F)cs3)csc2n(C)c1=O [Example 13]
98.2

Fill in the recorded inhibition at 1 µM for this compound, with Human TRPA1 expressing CHO cells (Homo sapiens) as test system: Cn1c(=O)c2c(CC(=O)Nc3nc(-c4ccc(C(F)(F)F)c(F)c4)cs3)csc2n(C)c1=O [Example 5]
95.3

Fill in the recorded inhibition at 1 µM for this compound, with Human TRPA1 expressing CHO cells (Homo sapiens) as test system: Cc1sc2c(c1CC(=O)Nc1nc(-c3ccc(F)c(C(F)(F)F)c3)cs1)c(=O)n(C)c(=O)n2C [Example 23]
97.7

Fill in the recorded inhibition at 1 µM for this compound, with Human TRPA1 expressing CHO cells (Homo sapiens) as test system: Cc1sc2c(c1CC(=O)Nc1nc(-c3ccc(F)c(OC(F)(F)F)c3)cs1)c(=O)n(C)c(=O)n2C [Example 25]
98.5

Fill in the recorded inhibition at 1 µM for this compound, with Human TRPA1 expressing CHO cells (Homo sapiens) as test system: CCc1sc2c(c1CC(=O)Nc1nc(-c3cc(F)c(OC(F)F)c(F)c3)cs1)c(=O)n(C)c(=O)n2C [Example 33]
96.9

Fill in the recorded inhibition at 1 µM for this compound, with Human TRPA1 expressing CHO cells (Homo sapiens) as test system: Cn1c(=O)c2c(CC(=O)Nc3nc(-c4cc(F)cc(C(F)(F)F)c4)cs3)csc2n(C)c1=O [Example 8]
89.8

Fill in the recorded inhibition at 1 µM for this compound, with Human TRPA1 expressing CHO cells (Homo sapiens) as test system: CC(C)c1sc2c(c1CC(=O)Nc1nc(-c3ccc(C(F)(F)F)c(F)c3)cs1)c(=O)n(C)c(=O)n2C [Example 37]
99

Fill in the recorded inhibition at 1 µM for this compound, with Human TRPA1 expressing CHO cells (Homo sapiens) as test system: Cc1sc2c(c1CC(=O)Nc1nc(-c3ccc(C(F)(F)F)c(F)c3)c[nH]1)c(=O)n(C)c(=O)n2C [Example 29]
91.7
